target-under-test: KRAS^G12C-SOS1 (Homo sapiens (Human), UniProt P01116, G12C)
Sequence (P01116-2 other isoform, or with tags, fused parts or gaps G12C): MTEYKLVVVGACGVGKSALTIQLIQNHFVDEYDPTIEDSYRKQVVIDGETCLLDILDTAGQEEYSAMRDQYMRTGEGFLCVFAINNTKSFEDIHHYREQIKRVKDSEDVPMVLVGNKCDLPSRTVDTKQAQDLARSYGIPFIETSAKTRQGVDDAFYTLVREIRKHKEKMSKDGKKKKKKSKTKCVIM
procedure-details: HTRF KRAS G12C/SOS1 binding assay
settings: Table 5
Entries and their measured IC50 follow.

Check out these entries, answers already filled in.
Lookup: Param item = COc1ncc(-c2ccc3ncnc(N4CCC5(CC4)CN(C(=O)/C=C/C(C)=O)C5)c3c2)cc1NS(=O)(=O)c1ccc(F)cc1Cl [Example 171] ; retrieve measured IC50.
Found: 441 nM

Lookup: Param item = COc1ncc(-c2ccc3ncnc(N4CCC5(CN(C(=O)/C=C/C(C)=O)C5)C4)c3c2)cc1NS(=O)(=O)c1c(F)cc(F)cc1F [Example 97] ; retrieve measured IC50.
Found: 101 nM

Lookup: Param item = COc1ncc(-c2ccc3ncnc(N4CCN(C5CN(C(=O)/C=C/C(C)=O)C5)CC4)c3c2)cc1NS(=O)(=O)c1ccc(F)cc1F [Example 56] ; retrieve measured IC50.
Found: 471 nM

Lookup: Param item = COc1ncc(-c2ccc3ncnc(N4CCN(C(=O)/C=C/C(C)=O)CC4)c3n2)cc1NS(=O)(=O)c1c(F)cccc1F [Example 131] ; retrieve measured IC50.
Found: 200 nM

Lookup: Param item = COc1ncc(-c2ccc3ncnc(C4CCN(C(=O)/C=C/C(C)=O)CC4)c3n2)cc1NS(=O)(=O)c1c(F)cccc1F [Example 233] ; retrieve measured IC50.
Found: 204 nM

Pending compound:
Lookup: Param item = COc1ncc(-c2ccc3ncnc(N4CCN(C(=O)/C=C/C(C)=O)CC4)c3n2)cc1NS(=O)(=O)c1c(F)cc(F)cc1F [Example 219] ; retrieve measured IC50.
Found: 152 nM
